RUN DESCRIPTION: Preliminary solubility in 14 solvents by solvent addition with visual assessment
Assay type: physicochemical
CONDITION PARAMETERS: organic solvent or mixture, thermodynamic from solid; EtOH, RT, Form V material; read-out: Solubility
From the text: Preliminary solubility of Compound 1 (Form V) was estimated in 14 selected solvents at RT using solvent addition method via visual assessment of samples.
VALUE TYPE: solubility

Task: Which solubility reading was recorded for the compound C=CC(=O)N1C[C@@H](n2nc(C#Cc3c(F)cc4c(ncn4C4CC4)c3F)c(C(N)=O)c2NC)C[C@@H]1COC [Compound 1] ?
Result: ~21 mg/mL

----------
RUN DESCRIPTION: Preliminary solubility in 14 solvents by solvent addition with visual assessment
Type: physicochemical
CONDITION PARAMETERS: thermodynamic from solid; non-polar solvents and water, RT; read-out: Solubility (practically insoluble)
VALUE TYPE: solubility

Task: Name the recorded solubility for C=CC(=O)N1C[C@@H](n2nc(C#Cc3c(F)cc4c(ncn4C4CC4)c3F)c(C(N)=O)c2NC)C[C@@H]1COC [Form V] .
Result: < 1000 µg/mL

----------
RUN DESCRIPTION: Preliminary solubility in 14 solvents by solvent addition with visual assessment
Assay type: physicochemical
CONDITION PARAMETERS: organic solvent or mixture, thermodynamic from solid; EA, RT, Form V material; read-out: Solubility
VALUE TYPE: solubility

Task: Need solubility of C=CC(=O)N1C[C@@H](n2nc(C#Cc3c(F)cc4c(ncn4C4CC4)c3F)c(C(N)=O)c2NC)C[C@@H]1COC [Compound 1] , thanks.
Result: ~8000 µg/mL

----------
RUN DESCRIPTION: Preliminary solubility in 14 solvents by solvent addition with visual assessment
Assay type: physicochemical
CONDITION PARAMETERS: organic solvent or mixture, thermodynamic from solid; Acetone, RT, Form V material; read-out: Solubility
VALUE TYPE: solubility

Task: Bench note: what solubility did C=CC(=O)N1C[C@@H](n2nc(C#Cc3c(F)cc4c(ncn4C4CC4)c3F)c(C(N)=O)c2NC)C[C@@H]1COC show?
Result: ~34 mg/mL

----------
RUN DESCRIPTION: Preliminary solubility in 14 solvents by solvent addition with visual assessment
Assay type: physicochemical
CONDITION PARAMETERS: organic solvent or mixture, thermodynamic from solid; IPA, RT, Form V material; read-out: Solubility
VALUE TYPE: solubility

Task: Any idea what solubility was measured for C=CC(=O)N1C[C@@H](n2nc(C#Cc3c(F)cc4c(ncn4C4CC4)c3F)c(C(N)=O)c2NC)C[C@@H]1COC ?
Result: ~5000 µg/mL

----------
RUN DESCRIPTION: Solubility testing of Form II in SGF, water, FaSSIF and FeSSIF
Assay type: physicochemical
CONDITION PARAMETERS: SGF, simulated gastric fluid, thermodynamic from solid
VALUE TYPE: solubility (µg/mL)
Write the answer as a number in µg/mL, unit excluded.

Task: Which solubility value belongs to C=CC(=O)N1C[C@@H](n2nc(C#Cc3c(F)cc4c(ncn4C4CC4)c3F)c(C(N)=O)c2NC)C[C@@H]1COC [Form II] ?
Result: 800

----------
RUN DESCRIPTION: Preliminary solubility in 14 solvents by solvent addition with visual assessment
Format: physicochemical
CONDITION PARAMETERS: organic solvent or mixture, thermodynamic from solid; MeOH, THF, acetone, MEK and ACN, RT; read-out: Solubility (relatively high)
VALUE TYPE: solubility

Task: Given the entry C=CC(=O)N1C[C@@H](n2nc(C#Cc3c(F)cc4c(ncn4C4CC4)c3F)c(C(N)=O)c2NC)C[C@@H]1COC [Form V] , report its measured solubility.
Result: > 20 mg/mL

----------
RUN DESCRIPTION: Preliminary solubility in 14 solvents by solvent addition with visual assessment
Assay type: physicochemical
CONDITION PARAMETERS: organic solvent or mixture, thermodynamic from solid; THF, RT, Form V material; read-out: Solubility
VALUE TYPE: solubility

Task: # input molecule: C=CC(=O)N1C[C@@H](n2nc(C#Cc3c(F)cc4c(ncn4C4CC4)c3F)c(C(N)=O)c2NC)C[C@@H]1COC ; wanted: its solubility
Result: > 100 mg/mL

----------
RUN DESCRIPTION: Preliminary solubility in 14 solvents by solvent addition with visual assessment
Type: physicochemical
CONDITION PARAMETERS: thermodynamic from solid; Water, RT, Form V material; read-out: Solubility
VALUE TYPE: solubility

Task: Could you tell me which solubility is on file for C=CC(=O)N1C[C@@H](n2nc(C#Cc3c(F)cc4c(ncn4C4CC4)c3F)c(C(N)=O)c2NC)C[C@@H]1COC ?
Result: < 1000 µg/mL

----------
RUN DESCRIPTION: Preliminary solubility in 14 solvents by solvent addition with visual assessment
Type: physicochemical
CONDITION PARAMETERS: organic solvent or mixture, thermodynamic from solid; Toluene, RT, Form V material; read-out: Solubility
VALUE TYPE: solubility

Task: I am curious: what solubility value has been reported for C=CC(=O)N1C[C@@H](n2nc(C#Cc3c(F)cc4c(ncn4C4CC4)c3F)c(C(N)=O)c2NC)C[C@@H]1COC ?
Result: < 1000 µg/mL

----------
RUN DESCRIPTION: Preliminary solubility in 14 solvents by solvent addition with visual assessment
Format: physicochemical
CONDITION PARAMETERS: organic solvent or mixture, thermodynamic from solid; IPAC, RT, Form V material; read-out: Solubility
VALUE TYPE: solubility

Task: Please give the measured solubility for this compound: C=CC(=O)N1C[C@@H](n2nc(C#Cc3c(F)cc4c(ncn4C4CC4)c3F)c(C(N)=O)c2NC)C[C@@H]1COC
Result: ~4000 µg/mL

----------
RUN DESCRIPTION: Preliminary solubility in 14 solvents by solvent addition with visual assessment
Assay type: physicochemical
CONDITION PARAMETERS: organic solvent or mixture, thermodynamic from solid; n-Heptane, RT, Form V material; read-out: Solubility
VALUE TYPE: solubility

Task: I have this compound here, C=CC(=O)N1C[C@@H](n2nc(C#Cc3c(F)cc4c(ncn4C4CC4)c3F)c(C(N)=O)c2NC)C[C@@H]1COC , and I need its recorded solubility.
Result: < 1000 µg/mL

----------
RUN DESCRIPTION: Preliminary solubility in 14 solvents by solvent addition with visual assessment
Type: physicochemical
CONDITION PARAMETERS: organic solvent or mixture, thermodynamic from solid; MEK, RT, Form V material; read-out: Solubility
VALUE TYPE: solubility

Task: Item under review: C=CC(=O)N1C[C@@H](n2nc(C#Cc3c(F)cc4c(ncn4C4CC4)c3F)c(C(N)=O)c2NC)C[C@@H]1COC [Compound 1] . Reported solubility?
Result: ~31 mg/mL

----------
RUN DESCRIPTION: Preliminary solubility in 14 solvents by solvent addition with visual assessment
Assay type: physicochemical
CONDITION PARAMETERS: organic solvent or mixture, thermodynamic from solid; MTBE, RT, Form V material; read-out: Solubility
Text: Preliminary solubility of Compound 1 (Form V) was estimated in 14 selected solvents at RT using solvent addition method via visual assessment of samples.
VALUE TYPE: solubility

Task: Returns the measured solubility for the input compound. Input: C=CC(=O)N1C[C@@H](n2nc(C#Cc3c(F)cc4c(ncn4C4CC4)c3F)c(C(N)=O)c2NC)C[C@@H]1COC
Result: < 750 µg/mL

----------
RUN DESCRIPTION: Preliminary solubility in 14 solvents by solvent addition with visual assessment
Assay type: physicochemical
CONDITION PARAMETERS: organic solvent or mixture, thermodynamic from solid; MeOH, RT, Form V material; read-out: Solubility
VALUE TYPE: solubility

Task: I have this molecule here, C=CC(=O)N1C[C@@H](n2nc(C#Cc3c(F)cc4c(ncn4C4CC4)c3F)c(C(N)=O)c2NC)C[C@@H]1COC [Compound 1] , and I need its recorded solubility.
Result: > 106 mg/mL
